System: CCRIS mutagenicity, Ames/micronucleus/aberration tests
test summary: CCRIS mutagenicity studies
experimental context: Test System: AMES SALMONELLA TYPHIMURIUM; Strain/Indicator: TA100; Metabolic Activation: HAMSTER, LIVER, S-9, AROCLOR 1254 (10%); Method: PREINCUBATION
Calls of active or inactive are those of the source. The rule behind the calls is not given here.
Please state which outcome applies, choosing from yes = active, no = inactive

molecule: Nc1c(Br)cc([N+](=O)[O-])cc1[N+](=O)[O-]
assigned label: yes
--
molecule: FC(Cl)(Cl)Cl
assigned label: no
--
molecule: N#CCBr
assigned label: no
--
molecule: COS(=O)(=O)C(F)(F)F
assigned label: yes
--
molecule: OCCCBr
assigned label: yes

Data request: Please indicate how the test categorized CCS(=O)CCSP(=O)(OC)OC (stereo not drawn) .
Data returned: yes

Data request: Do the same for "Nc1nc2ccccc2[nH]1" please
Data returned: no

Data request: Do the same for "Cc1ccco1" please
Data returned: no

Data request: Do the same for "CCCCCCCCCCCCOCCO" please
Data returned: no

Data request: Do the same for "C=C1C/C(=C/C)C(=O)O[C@@H]2CCN3CC=C(COC(=O)[C@@]1(O)CO)[C@H]23" please
Data returned: no

Data request: Do the same for CC(C)(COCC1CO1)COCC1CO1 (stereo not drawn) please
Data returned: yes

Data request: Do the same for "COc1ccc(CN(CCN(C)C)c2ncccn2)cc1" please
Data returned: no

Data request: Do the same for "N#CCC#N" please
Data returned: no

Data request: Do the same for "CC(C)(C)N" please
Data returned: no

Data request: Do the same for "O=C1c2c(O)cccc2Cc2cccc(O)c21" please
Data returned: no

Data request: Do the same for "C=CC(=O)OCCCC" please
Data returned: no

Data request: Do the same for "CCNc1nc(Cl)nc(NC(C)C)n1" please
Data returned: no

Data request: Do the same for CC(COc1ccccc1)N(CCCl)Cc1ccccc1 (stereo not drawn) please
Data returned: yes

Data request: Do the same for CCCCCCCCCCCCOCC1CO1 (stereo not drawn) please
Data returned: no

Data request: Do the same for "O=[N+]([O-])c1cc([As](=O)(O)O)ccc1O" please
Data returned: no

Data request: Do the same for CCOC(=O)C1OC1(C)c1ccccc1 (stereo not drawn) please
Data returned: no

Data request: Do the same for "CC(=O)NBr" please
Data returned: no

====

System: CCRIS mutagenicity, Ames/micronucleus/aberration tests
test summary: CCRIS mutagenicity studies
experimental context: Test System: AMES SALMONELLA TYPHIMURIUM; Strain/Indicator: YG1020; Metabolic Activation: NONE; Method: PREINCUBATION
Active and inactive are the calls of the source. How the calls were made is not given here.
Please state which outcome applies, choosing from active, inactive

Data request: Please indicate how the test categorized "Nc1nc(-c2ccc([N+](=O)[O-])cc2)nc2nc[nH]c12" .
Data returned: active

====

Test system: CCRIS mutagenicity, Ames/micronucleus/aberration tests
test summary: CCRIS mutagenicity studies
experimental context: Test System: AMES SALMONELLA TYPHIMURIUM; Strain/Indicator: TA2638; Metabolic Activation: NONE; Method: STANDARD PLATE
Calls of active or inactive are those of the source. No rule for the calls is given here.
Please state which outcome applies, choosing from TRUE = active, FALSE = inactive

molecule: Nc1ccc(N)cc1
assigned label: FALSE

Data request: Please indicate how the test categorized "CCOC(=O)CCl" .
Data returned: FALSE

Data request: Do the same for O=C(O)C(Cl)CCl (configuration not stated) please
Data returned: FALSE

====

System: CCRIS mutagenicity, Ames/micronucleus/aberration tests
test summary: CCRIS mutagenicity studies
experimental context: Test System: AMES SALMONELLA TYPHIMURIUM; Strain/Indicator: TA100(NR); Metabolic Activation: RAT, LIVER, S-9, PCB; Method: PREINCUBATION
Active and inactive are the calls of the source. No rule for the calls is given here.

sample smiles: Nc1ncnc2c1ncn2-c1ccc([N+](=O)[O-])cc1[N+](=O)[O-]
mutagenic call: inactive; negative
//
sample smiles: Nc1nc(-c2ccc([N+](=O)[O-])cc2)nc2c1ncn2[C@@H]1O[C@H](CO)[C@@H](O)[C@H]1O
mutagenic call: inactive; negative
//
sample smiles: Nc1ncnc2c1ncn2Cc1ccc([N+](=O)[O-])cc1
mutagenic call: inactive; negative

====

Test system: CCRIS mutagenicity, Ames/micronucleus/aberration tests
test summary: CCRIS mutagenicity studies
experimental context: Test System: AMES SALMONELLA TYPHIMURIUM; Strain/Indicator: TA100; Metabolic Activation: RAT LIVER S-9, PCB; Method: PREINCUBATION
Activity calls are given as the source filed them. No rule for the calls is given here.
Please state which outcome applies, choosing from active, inactive

Recorded results for 6 compounds are shown here.
compound: O=C(Cl)c1ccccc1
assigned label: active
--
compound: O=C(O)c1cccc(Cl)c1
assigned label: inactive
--
compound: O=Cc1ccc(Cl)cc1
assigned label: inactive
--
compound: CCN(CC(O)c1ccc([N+]#N)c([O-])c1)N=O (configuration not stated)
assigned label: active
--
compound: O=C(O)c1ccccc1Cl
assigned label: inactive
--
compound: O=C(O)c1c(Cl)cccc1Cl
assigned label: inactive

Turning now to a further record.
Data request: Please indicate how the test categorized "O=C(Cl)c1c(Cl)cccc1Cl" .
Data returned: active

====

Tested on: CCRIS mutagenicity, Ames/micronucleus/aberration tests
test summary: CCRIS mutagenicity studies
experimental context: Test System: AMES SALMONELLA TYPHIMURIUM; Strain/Indicator: TA100; Metabolic Activation: NONE; Method: STANDARD PLATE
Active and inactive are the calls of the source. The rule behind the calls is not given here.
Please state which outcome applies, choosing from Yes = active, No = inactive

molecule: COc1cccc(/C=C/c2ccc(N)cc2)c1
assigned label: No
//
molecule: BrCc1c2ccccc2c2ccc3cccc4ccc1c2c43
assigned label: Yes
//
molecule: CC(C)CCNc1snc2ccccc12
assigned label: No
//
molecule: COC(=O)Nc1nc2ccc(C(=O)c3ccccc3)cc2[nH]1
assigned label: No
//
molecule: CCOP(=O)(OCC)Oc1cc(C)nc(C(C)C)n1
assigned label: Yes

Data request: Please indicate how the test categorized "Clc1cncc(Cl)c1" .
Data returned: No

Data request: Do the same for CCOC(=O)C1OC1c1ccccc1 (centres undefined) please
Data returned: No

Data request: Do the same for "O=[N+]([O-])c1ccc2ccc3c4c(cc5ccc1c2c53)CCCC4" please
Data returned: No

Data request: Do the same for "[O-]/[N+](=N\O)c1ccccc1" please
Data returned: No

Data request: Do the same for "COC(=O)[C@@H]1O[C@@H]1c1ccccc1" please
Data returned: Yes

Data request: Do the same for CC(C)(C)C(Br)C(=O)Nc1ccccc1 (centres undefined) please
Data returned: No

====

Tested on: CCRIS mutagenicity, Ames/micronucleus/aberration tests
test summary: CCRIS mutagenicity studies
experimental context: Test System: AMES SALMONELLA TYPHIMURIUM; Strain/Indicator: YG1024; Metabolic Activation: RAT, LIVER, S-9, PCB; Method: PREINCUBATION
Activity calls are given as the source filed them. No rule for the calls is given here.
measured attribute: mutagenic call

sample smiles: Nc1ncnc2c1ncn2-c1ccc([N+](=O)[O-])cc1[N+](=O)[O-]
assay value: active; positive
--
sample smiles: Nc1nc(-c2ccc([N+](=O)[O-])cc2)nc2nc[nH]c12
assay value: active; positive
--
sample smiles: Nc1nc(-c2ccc([N+](=O)[O-])cc2)nc2c1ncn2[C@@H]1O[C@H](CO)[C@@H](O)[C@H]1O
assay value: active; positive

====

Test system: CCRIS mutagenicity, Ames/micronucleus/aberration tests
test summary: CCRIS mutagenicity studies
experimental context: Test System: AMES SALMONELLA TYPHIMURIUM; Strain/Indicator: TA98; Metabolic Activation: NONE; Method: STANDARD PLATE
Description: The CCRIS database contains chemical records with carcinogenicity, mutagenicity, tumor promotion, and tumor inhibition test results. It was developed by the National Cancer Institute (NCI). Data are derived from studies cited in primary journals, current awareness tools, NCI reports, and other sources. Test results have been reviewed by experts in carcinogenesis and mutagenesis. CCRIS provides historical information from the years 1985 - 2011. It is no longer updated. […]
Active and inactive are the calls of the source. No rule for the calls is given here.
Please state which outcome applies, choosing from T = active, F = inactive

Recorded results for 2 molecules are shown here.
molecule: COc1ccc(N=O)cc1
assigned label: T
--
molecule: CCOP(=O)(OCC)Oc1cc(C)nc(C(C)C)n1
assigned label: F

Data request: Please indicate how the test categorized "O=[N+]([O-])c1ccc(NO)cc1" .
Data returned: T

Data request: Do the same for "N#CC(Cl)(Cl)Cl" please
Data returned: F

Data request: Do the same for "Cl/C=C/CCl" please
Data returned: T

====

Tested on: CCRIS mutagenicity, Ames/micronucleus/aberration tests
test summary: CCRIS mutagenicity studies
experimental context: Test System: AMES SALMONELLA TYPHIMURIUM; Strain/Indicator: TA1535; Metabolic Activation: RAT, LIVER, S-9, AROCLOR 1254 (10 OR 30%); Method: PREINCUBATION
Active and inactive are the calls of the source. How the calls were made is not given here.
Please state which outcome applies, choosing from active, inactive

compound: CC(C)=O
assigned label: inactive

compound: C1COC1
assigned label: active

compound: CCC(C(N)=O)(C(N)=O)c1ccccc1
assigned label: inactive

compound: C=C1C/C(=C/C)C(=O)O[C@@H]2CCN3CC=C(COC(=O)[C@@]1(O)CO)[C@H]23
assigned label: inactive

compound: N#CCC#N
assigned label: inactive

compound: S=C(NC1CCCCC1)NC1CCCCC1
assigned label: inactive

compound: Cc1c[nH]c(=S)[nH]c1=O
assigned label: inactive

compound: CN1C(=O)CN=C(c2ccccc2)c2cc(Cl)ccc21
assigned label: inactive

Data request: Please indicate how the test categorized "CC(C)(OOC(C)(C)c1ccccc1)c1ccccc1" .
Data returned: inactive

Data request: Do the same for "CCCCCCCCC" please
Data returned: inactive

Data request: Do the same for "CC(=O)OO" please
Data returned: inactive

Data request: Do the same for C=CCC1(C(C)C#CCC)C(=O)N=C(O)N(C)C1=O (configuration not stated) please
Data returned: inactive

Data request: Do the same for "CNC(=O)ON=CC(C)(C)SC" please
Data returned: inactive

Data request: Do the same for "Nc1cccc(S(=O)(=O)O)c1" please
Data returned: inactive
